Reference for the values: patent US20240391861A1

experiment_notes: KGA Solubility Test (glucarate solubility at various pH in water and acetone/water, quantified by LC)
condition_label: 22 °C, pH 3.5, aqueous with cosolvent or surfactant or cyclodextrin, thermodynamic from solid
reported_endpoint: solubility

-- ask Consider the molecule O=C(O)[C@@H](O)[C@@H](O)[C@H](O)[C@@H](O)C(=O)[O-].[K+] [KGA, monopotassium glucarate] and give its measured solubility.
-- reply ~8100 µg/mL

###

experiment_notes: KGA Solubility Test (glucarate solubility at various pH in water and acetone/water, quantified by LC)
condition_label: 22 °C, pH 3.5, aqueous buffer, thermodynamic from solid
reported_endpoint: solubility

-- ask Data request, read-out solubility, for O=C(O)[C@@H](O)[C@@H](O)[C@H](O)[C@@H](O)C(=O)[O-].[K+] [KGA, monopotassium glucarate]
-- reply ~16 mg/mL

###

experiment_notes: KGA Solubility Test (glucarate solubility at various pH in water and acetone/water, quantified by LC)
condition_label: 22 °C, aqueous buffer, thermodynamic from solid
reported_endpoint: solubility

-- ask Please give the measured solubility for this compound: O=C([O-])[C@@H](O)[C@@H](O)[C@H](O)[C@@H](O)C(=O)[O-].[K+].[K+] [K2GA, dipotassium glucarate]
-- reply > 120 mg/mL
